- tested.system: UniProt:P08842
- assay.notes: Mixed type inhibition of steroid sulfatase using 4-methylumbelliferyl sulfate as substrate by Lineweaver-Burk plot analysis
measure.name: pKi
Scale for pKi: -log10 of concentration given in mol/L; no unit attached.

Per the record, `C[C@]12CC[C@@H]3c4ccc(O)cc4CC[C@H]3[C@@H]1CC[C@@H]2NS(=O)(=O)c1cccc(Br)c1` has pKi of 7.64

====

- tested.system: Steryl-sulfatase (Homo sapiens, UniProt P08842)
- Sequence (P08842 whole entry): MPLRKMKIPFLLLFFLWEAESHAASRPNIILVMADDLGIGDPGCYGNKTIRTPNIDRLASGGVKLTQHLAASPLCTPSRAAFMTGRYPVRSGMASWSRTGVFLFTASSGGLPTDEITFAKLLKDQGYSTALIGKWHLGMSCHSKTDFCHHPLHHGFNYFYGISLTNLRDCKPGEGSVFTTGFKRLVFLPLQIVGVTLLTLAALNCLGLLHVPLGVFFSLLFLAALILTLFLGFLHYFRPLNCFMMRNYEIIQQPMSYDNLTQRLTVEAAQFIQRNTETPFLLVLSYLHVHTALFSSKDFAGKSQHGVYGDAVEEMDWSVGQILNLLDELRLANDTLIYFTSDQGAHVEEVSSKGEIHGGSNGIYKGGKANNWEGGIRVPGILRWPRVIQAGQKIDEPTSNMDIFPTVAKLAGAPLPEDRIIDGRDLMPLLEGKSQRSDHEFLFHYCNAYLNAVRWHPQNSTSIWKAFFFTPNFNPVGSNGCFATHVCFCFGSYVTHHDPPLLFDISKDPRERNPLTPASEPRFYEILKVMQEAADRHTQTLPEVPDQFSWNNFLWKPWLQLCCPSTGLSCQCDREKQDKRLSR
- assay.notes: Inhibition of steroid sulfatase using 4-methylumbelliferyl sulfate as substrate by Lineweaver-Burk plot analysis
measure.name: Ki (µM)
// return numeric value only (unit: µM, not printed)

Per the record, `C[C@]12CC[C@@H]3c4ccc(O)cc4CC[C@H]3[C@@H]1CC[C@@H]2NS(=O)(=O)c1cccc(Br)c1` has Ki of 0.023

These entries and their values trace back to ChEMBL document CHEMBL1944519.
